# ASSAY_PROTOCOL: Compatibility of surfactant with diammonium glyphosate concentrate (no phase separation, 50° C., 1 week)
# Assay type: physicochemical
# MEASUREMENT_CONDITIONS: 37 wt. % a.e. diammonium glyphosate/12 wt. % surfactant; 50° C. oven 1 week
ENDPOINT_LABEL: Compatible w/37% a.e. diammonium glyphosate at 12 wt % loading

# COMPOUND, OBS_VALUE
records = [
    ("CCCCCCCCNC(CO)(CO)CO", "Yes"),
    ("CCCCCCCCCCCC[N+](C)(C)C", "No"),
    ("CCCCCCCCCCCCCCCCCCN(C)CC(O)C(O)C(O)C(O)CO (centres unmarked)", "No"),
    ("CCCCCCCCNCC(O)C(O)C(O)C(O)CO (centres unmarked)", "Yes"),
]

The record that follows has no Compatible w/37% a.e. diammonium glyphosate at 12 wt % loading shown yet.
What Compatible w/37% a.e. diammonium glyphosate at 12 wt % loading value was documented for this compound, CCCCCCCCCCCCCCCCOCCOCCOCCOCCOCCOCCOCCOCCOCCOCCOCCOCCOCCOCCOCCOCCOCCOCCOCCOCCN(C)CC(O)C(O)C(O)C(O)CO (centres unmarked) ?
No
